System: Zika virus NS2B-NS3 protease (linked construct)
Test: Primary screen NINDS Rhodamine qHTS for Zika virus inhibitors (AID 1347160); further: nearly all actives have a fitted effect of over 55% in size
Settings: purified NS2B-NS3 protease, Rhodamine110 substrate fluorescence; series mostly up to 33.1 µM
Results filed as inconclusive are left out. Activity calls are given as the source filed them. The call rests on the fitted dose curve; in most records, active means well fitted inhibition curve with a large enough effect; inconclusive means small, poorly fitted or top-dose-only effect; inactive means no such curve, though single readings can be large or run the other way.
Labels: active, inactive

{"columns": ["compound", "qualitative label"],
 "data": [
  ["CC(=O)c1c(C)cccc1O[C@@H]1O[C@H](CO)[C@@H](O)[C@H](O)[C@H]1O", "inactive"],
  ["C=C(C)C1Cc2c(ccc3c2OCC(c2ccc(O)cc2O)C3)O1 (stereo not given)", "inactive"],
  ["CS(=O)(=O)c1ccccc1N1CCN(c2nc3c(c(=O)[nH]2)CSCC3)CC1", "inactive"],
  ["CCC(C)/C=C(C)/C=C/C1=CC2=C(Cl)C(=O)C(C)(O)C(=O)C2(O)C(OC)O1 (stereo not given)", "active"],
  ["C[C@@H]1O[C@@H](O[C@H]2[C@@H]3C=CO[C@@H](O[C@@H]4O[C@H](CO)[C@@H](O)[C@H](O)[C@H]4O)[C@@H]3[C@@]3(CO)O[C@@H]23)[C@H](O)[C@H](O)[C@H]1OC(=O)/C=C/c1ccc(O)cc1", "inactive"],
  ["CC(=O)OC(C)(C)/C=C/C(=O)[C@](C)(O)C1[C@H](O)C[C@@]2(C)[C@@H]3CC=C4[C@@H](C[C@H](O[C@@H]5O[C@H](CO)[C@@H](O)[C@H](O)[C@H]5O)C(=O)C4(C)C)[C@]3(C)C(=O)C[C@]12C (stereo not given in full)", "inactive"],
  ["CC1(C)CC[C@]2(C(=O)O[C@@H]3O[C@H](CO)[C@@H](O)[C@H](O)[C@H]3O)CC[C@]3(C)C(=CCC4[C@@]5(C)CC[C@H](O[C@H]6O[C@H](CO)[C@@H](O)[C@H](O[C@@H]7O[C@H](CO)[C@@H](O)[C@H](O)[C@H]7O)[C@H]6O)C(C)(C)C5CC[C@]43C)[C@@H]2C1 (stereo not given in full)", "inactive"],
  ["CCC(C)C(N)C(=O)NCCN1CCOCC1 (stereo not given)", "inactive"],
  ["CCCN1CCC[C@@H](c2cccc(S(C)(=O)=O)c2)C1", "inactive"],
  ["CC1(C(=O)O)CCCC2(C)C3CCC4CC3(CCC12)CC4C(=O)O (stereo not given)", "inactive"],
  ["Nc1ncnc2c1c(COc1cccc(Cl)c1)nn2C1CCOCC1", "inactive"],
  ["C[C@@H]1O[C@@H](O[C@H]2[C@H](O)[C@@H](O)[C@H](OC[C@H]3O[C@@H](OC(=O)[C@]45CCC(C)(C)C[C@H]4C4=CCC6[C@@]7(C)C[C@@H](O)[C@H](O)[C@@](C)(CO)C7[C@H](O)C[C@@]6(C)[C@]4(C)CC5)[C@H](O)[C@@H](O)[C@@H]3O)O[C@@H]2CO)[C@H](O)[C@H](O)[C@H]1O (stereo not given in full)", "inactive"],
  ["C/C=C/C=C/[C@@H]1O[C@](O)([C@H](CC)C(=O)NC/C=C/C=C(\\C)[C@@H](OC)[C@@H](C)[C@@H]2O[C@H](/C=C/C=C/C=C(\\C)C(=O)c3c(O)ccn(C)c3=O)[C@H](O)[C@@H]2O)[C@H](O)[C@H](O)C1(C)C", "inactive"],
  ["COc1c(C)c(OCC(O)C(C)(C)O)cc2c1CNC2=O (stereo not given)", "inactive"],
  ["C/C=C(/C)C(=O)OC1C2OC2C2(CO2)C2C3OC(=O)C(C)C3CCC12C (stereo not given)", "inactive"],
  ["C=C[C@H]1[C@H](O[C@@H]2O[C@H](CO)[C@@H](O)[C@H](O)[C@H]2O)OC=C(C(=O)OC)[C@H]1CCO", "inactive"],
  ["CC(=O)O[C@@H]1C(O)C[C@@]2(C)C(CC[C@@H](C)C23Cc2c(O)cc4c(c2O3)CNC4=O)C1(C)C (stereo not given in full)", "inactive"],
  ["Oc1ccccc1-c1cc(-c2ccccc2F)[nH]n1", "inactive"],
  ["C/C=C1/[C@H](O[C@@H]2O[C@H](CO)[C@@H](O)[C@H](O)[C@H]2O)OC=C(C(=O)OC)[C@H]1CC(=O)OCCc1ccc(OC(=O)C[C@@H]2C(C(=O)OC)=CO[C@@H](O[C@@H]3O[C@H](CO)[C@@H](O)[C@H](O)[C@H]3O)/C2=C/C)cc1", "inactive"],
  ["CCOC(=O)C(CCc1ccccc1)NC(C)C(=O)N1Cc2ccccc2CC1C(=O)O (stereo not given)", "inactive"],
  ["COc1cc(/C=C/C(=O)OCC2OC(OC3(CO)OC(CO)C(O)C3O)C(O)C(O)C2O)ccc1O (stereo not given)", "inactive"],
  ["O=C(O)CC(CCc1ccccc1)OC1OC(CO)C(O)C(O)C1O (stereo not given)", "inactive"],
  ["O=C(Nc1ccccc1)Nc1ccc(-c2ccc(C(=O)C3CCCC3C(=O)O)cc2)cc1 (stereo not given)", "active"],
  ["C=CCc1ccc(O[C@@H]2O[C@H](CO)[C@@H](O)[C@H](O)[C@H]2O)c(O[C@@H]2O[C@H](CO)[C@@H](O)[C@H](O)[C@H]2O)c1", "inactive"],
  ["COc1ccc(Oc2c(Cl)cnn(C3c4ccccc4-c4ccccc43)c2=O)cc1", "inactive"],
  ["C=C1CCC2C(C)(C(=O)OC)CCCC2(C)C1CCC1=CCOC1=O (stereo not given)", "inactive"],
  ["CNC(=O)c1ccc2c(c1)CCO[C@H]2CCN1CCN(c2ccc(C(N)=O)cc2)CC1", "inactive"],
  ["CCc1cc(CC[C@]2(C3CCCC3)CC(O)=C(Cc3nc4nc(C)cc(C)n4n3)C(=O)O2)cc(CC)n1", "inactive"],
  ["Cc1ccc(Cl)cc1N(CC(=O)Nc1c(F)cccc1F)S(C)(=O)=O", "inactive"],
  ["CC(=O)OC1C(C)C2C(OC3OC(CO)C(O)C(O)C3O)OC=C(C(=O)O)C2C1OC(=O)c1ccccc1 (stereo not given)", "inactive"]
]}
